biological target: Cytochrome P450 2A6 (Homo sapiens, UniProt P11509); conditions: bti-tn-5b1-4; also: in other assays of this panel Not Active means under 50% inhibition at 10 µM
Sequence (P11509 whole entry): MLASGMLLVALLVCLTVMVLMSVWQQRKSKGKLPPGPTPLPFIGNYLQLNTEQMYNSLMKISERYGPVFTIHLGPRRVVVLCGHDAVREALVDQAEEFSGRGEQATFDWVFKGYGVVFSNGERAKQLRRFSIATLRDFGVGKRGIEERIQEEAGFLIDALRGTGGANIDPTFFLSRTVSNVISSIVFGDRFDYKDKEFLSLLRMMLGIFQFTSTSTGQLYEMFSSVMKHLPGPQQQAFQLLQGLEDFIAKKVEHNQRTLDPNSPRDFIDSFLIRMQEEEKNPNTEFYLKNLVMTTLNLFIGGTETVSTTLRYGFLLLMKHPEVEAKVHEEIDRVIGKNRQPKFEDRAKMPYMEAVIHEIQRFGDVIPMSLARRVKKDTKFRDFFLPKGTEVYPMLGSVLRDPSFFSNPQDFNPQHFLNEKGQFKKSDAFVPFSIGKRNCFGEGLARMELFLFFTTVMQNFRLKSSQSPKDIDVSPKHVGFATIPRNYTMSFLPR
property_measured: IC50

[
  {
    "molecule": "CCCNC(=O)NS(=O)(=O)c1ccc(Cl)cc1 [CHLORPROPAMIDE]",
    "IC50": "Not Active"
  },
  {
    "molecule": "CC(=N)S [THIOACETAMIDE]",
    "IC50": "Not Active"
  },
  {
    "molecule": "Nc1ccc(S(=O)(=O)NC(=O)c2ccccc2)cc1 [SULFABENZAMIDE]",
    "IC50": "Not Active"
  },
  {
    "molecule": "Clc1ccc(COC(Cn2ccnc2)c2ccc(Cl)cc2Cl)c(Cl)c1 (stereo not given)",
    "IC50": "Not Active"
  }
]

Quick batch: IC50 for everything below.
1. CC(=O)OC[C@H]1O[C@@H](n2ncc(=O)[nH]c2=O)[C@H](OC(C)=O)[C@@H]1OC(C)=O
2. CN(C)C(=N)NC(=N)N

OUT:
1. Not Active
2. Not Active

Quick batch: IC50 for everything below.
1. CCN(C(C)=O)c1cccc(-c2ccnc3c(C#N)cnn23)c1
2. C[N+](C)(C)CCOC(=O)CCC(=O)OCC[N+](C)(C)C.[Cl-].[Cl-] [SUCCINYLCHOLINE CHLORIDE]
3. NCCCNCCSP(=O)(O)O
4. COc1ccccc1N

OUT:
["Not Active", "Not Active", "Not Active", "Not Active"]

====

assay: DRUGMATRIX: Calcium Channel Type L, Benzothiazepine radioligand binding (ligand: [3H] Diltiazem); format: cell membranes, Rattus norvegicus, Wistar, Brain, Membrane; conditions: Not Active = under 50% inhibition at 10 µM
property_measured: Ki

[
  {
    "substance": "ZIRCONIUM(IV) CHLORIDE",
    "result": "Not Active"
  },
  {
    "substance": "TRANSPLATIN",
    "result": "Not Active"
  },
  {
    "substance": "COBALTOUS CHLORIDE",
    "result": "Not Active"
  },
  {
    "substance": "COLISTIN",
    "result": "Not Active"
  }
]

====

target: D(3) dopamine receptor (Homo sapiens, UniProt P35462); assay: DRUGMATRIX: Dopamine D3 radioligand binding (ligand: [3H] Spiperone); format: cell membranes, CHO, Membrane; conditions: read-out: IC50
Sequence (P35462 whole entry): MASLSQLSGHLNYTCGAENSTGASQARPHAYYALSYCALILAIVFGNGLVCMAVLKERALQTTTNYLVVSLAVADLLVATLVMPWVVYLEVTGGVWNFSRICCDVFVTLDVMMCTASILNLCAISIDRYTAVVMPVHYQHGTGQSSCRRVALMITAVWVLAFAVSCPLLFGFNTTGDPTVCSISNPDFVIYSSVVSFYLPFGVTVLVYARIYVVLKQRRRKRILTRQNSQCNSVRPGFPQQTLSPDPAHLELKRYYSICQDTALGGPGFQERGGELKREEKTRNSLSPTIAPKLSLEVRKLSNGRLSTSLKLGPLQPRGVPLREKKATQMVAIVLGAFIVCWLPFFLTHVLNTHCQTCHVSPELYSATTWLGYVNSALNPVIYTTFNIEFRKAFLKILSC
Label key: yes means IC50 under 2 µM; no means IC50 of 2 µM or more.

IN: Input CN1CCN(C(c2ccccc2)c2ccccc2)CC1 [CYCLIZINE] ; condition: IC50 strictly below 2 µM. Does it hold?
OUT: no

IN: Input CN(C)CCC=C1c2ccccc2CCc2ccccc21 [AMITRIPTYLINE] ; condition: IC50 strictly below 2 µM. Does it hold?
OUT: yes

IN: Input CCCCCCCCNC(C)C(O)c1ccc(SC(C)C)cc1 (stereo unspecified) [SULOCTIDIL] ; condition: IC50 strictly below 2 µM. Does it hold?
OUT: no

IN: Input CCN(CC)CCCC(C)Nc1c2ccc(Cl)cc2nc2ccc(OC)cc12 (stereo unspecified) [QUINACRINE] ; condition: IC50 strictly below 2 µM. Does it hold?
OUT: yes

IN: Input Clc1ccc(COC(Cn2ccnc2)c2ccc(Cl)cc2Cl)c(Cl)c1 (stereo unspecified) [MICONAZOLE] ; condition: IC50 strictly below 2 µM. Does it hold?
OUT: no

IN: Input NCCCNCCSP(=O)(O)O [AMIFOSTINE] ; condition: IC50 strictly below 2 µM. Does it hold?
OUT: yes

IN: Input CN(C)C(=O)C(CCN1CCC(O)(c2ccc(Cl)cc2)CC1)(c1ccccc1)c1ccccc1 [LOPERAMIDE] ; condition: IC50 strictly below 2 µM. Does it hold?
OUT: yes

IN: Input CC(C)C[C@H]1C(=O)N2CCC[C@H]2[C@]2(O)O[C@](NC(=O)[C@@H]3C=C4c5cccc6[nH]cc(c56)C[C@H]4N(C)C3)(C(C)C)C(=O)N12 [ERGOCRYPTINE] ; condition: IC50 strictly below 2 µM. Does it hold?
OUT: yes

IN: Input CN1[C@@H]2CC[C@H]1C[C@@H](OC(c1ccccc1)c1ccccc1)C2 [BENZTROPINE] ; condition: IC50 strictly below 2 µM. Does it hold?
OUT: yes

====

assay: DRUGMATRIX: Imidazoline I2, Central radioligand binding (ligand: [3H] Idazoxan); type: cell membranes, Rattus norvegicus, Wistar, Cerebral cortex, Membrane; conditions: Not Active = under 50% inhibition at 10 µM
property_measured: IC50

Completed entries (count: 5):
[
  {
    "compound": "C[C@H]1O[C@H](O[C@H]2[C@H](O)[C@@H](O)[C@@H](O[C@H]3[C@H](O)[C@@H](O)C(O)O[C@@H]3CO)O[C@@H]2CO)[C@H](O)[C@@H](O)[C@@H]1N[C@H]1C=C(CO)[C@@H](O)[C@H](O)[C@H]1O (stereo partly specified) [ACARBOSE]",
    "IC50": "Not Active"
  },
  {
    "compound": "COc1ccnc(C[S+]([O-])c2nc3ccc(OC(F)F)cc3[nH]2)c1OC (stereo unspecified) [PANTOPRAZOLE]",
    "IC50": "Not Active"
  },
  {
    "compound": "Cn1c(=O)c2c(ncn2C)n(C)c1=O [CAFFEINE]",
    "IC50": "Not Active"
  },
  {
    "compound": "COC(=O)[C@H]1[C@H]2C[C@@H]3c4[nH]c5cc(OC)ccc5c4CCN3C[C@H]2C[C@@H](OC(=O)c2cc(OC)c(OC)c(OC)c2)[C@@H]1OC [RESERPINE]",
    "IC50": "Not Active"
  },
  {
    "compound": "CC(C)c1c(C(=O)Nc2ccccc2)c(-c2ccccc2)c(-c2ccc(F)cc2)n1CC[C@@H](O)C[C@@H](O)CC(=O)O [ATORVASTATIN]",
    "IC50": "Not Active"
  }
]

IN: # get_value(readout='IC50', item= C[N+](C)(C)CCOC(=O)CCC(=O)OCC[N+](C)(C)C.[Cl-].[Cl-] [SUCCINYLCHOLINE CHLORIDE] )
OUT: Not Active

====

target: Cytochrome P450 1A2 (Homo sapiens); also: in other assays of this panel Not Active means under 50% inhibition at 10 µM
Sequence (P05177 whole entry): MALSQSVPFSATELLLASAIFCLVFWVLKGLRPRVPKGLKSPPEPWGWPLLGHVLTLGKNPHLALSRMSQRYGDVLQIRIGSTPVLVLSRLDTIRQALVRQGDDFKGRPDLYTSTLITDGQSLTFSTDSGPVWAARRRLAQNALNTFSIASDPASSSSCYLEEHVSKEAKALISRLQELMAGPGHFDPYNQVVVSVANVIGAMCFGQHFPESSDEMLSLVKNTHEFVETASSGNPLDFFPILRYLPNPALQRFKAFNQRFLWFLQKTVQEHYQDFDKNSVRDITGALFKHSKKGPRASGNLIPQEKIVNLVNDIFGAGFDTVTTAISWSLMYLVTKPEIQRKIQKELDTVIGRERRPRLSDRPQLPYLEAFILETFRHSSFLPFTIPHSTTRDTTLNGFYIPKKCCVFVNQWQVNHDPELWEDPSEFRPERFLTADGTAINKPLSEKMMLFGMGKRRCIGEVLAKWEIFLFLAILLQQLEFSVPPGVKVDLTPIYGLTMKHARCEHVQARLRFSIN
property_measured: IC50 (nM)
Numbers only, in nM.

IN: # get_value(readout='IC50', item= C[S+]([O-])c1ccc(-c2nc(-c3ccncc3)c(-c3ccc(F)cc3)[nH]2)cc1 (stereo unspecified) [SB-203580] )
OUT: 2000

====

assay: DRUGMATRIX: Leukotriene, BLT (LTB4) radioligand binding (ligand: [3H]LTB4); format: cell membranes, Membrane; conditions: u-937; Not Active = under 50% inhibition at 10 µM
property_measured: Ki

[
  {
    "compound": "CCn1cc(C(=O)O)c(=O)c2cc(F)c(N3CCNC(C)C3)c(F)c21 (stereo not drawn) [LOMEFLOXACIN]",
    "property_measured": "Ki",
    "result": "Not Active"
  },
  {
    "compound": "C[C@H]1O[C@H](O[C@H]2[C@H](O)[C@@H](O)[C@@H](O[C@H]3[C@H](O)[C@@H](O)C(O)O[C@@H]3CO)O[C@@H]2CO)[C@H](O)[C@@H](O)[C@@H]1N[C@H]1C=C(CO)[C@@H](O)[C@H](O)[C@H]1O (stereo partly drawn) [ACARBOSE]",
    "property_measured": "Ki",
    "result": "Not Active"
  },
  {
    "compound": "CC(=O)OCC(COC(C)=O)OC(C)=O [TRIACETIN]",
    "property_measured": "Ki",
    "result": "Not Active"
  },
  {
    "compound": "NNCCc1ccccc1 [PHENELZINE]",
    "property_measured": "Ki",
    "result": "Not Active"
  },
  {
    "compound": "C[C@]12C=CC(=O)C=C1CC[C@H]1[C@@H]3C[C@@H](O)[C@](O)(C(=O)CO)[C@@]3(C)C[C@H](O)[C@@]12F [TRIAMCINOLONE]",
    "property_measured": "Ki",
    "result": "Not Active"
  },
  {
    "compound": "CCN(CC)CCNC(=O)c1ccc(N)cc1 [PROCAINAMIDE]",
    "property_measured": "Ki",
    "result": "Not Active"
  },
  {
    "compound": "O=c1c(-c2ccc(O)cc2)coc2cc(O)cc(O)c12 [GENISTEIN]",
    "property_measured": "Ki",
    "result": "Not Active"
  }
]

Below: the item to evaluate.
IN: # get_value(readout='Ki', item= CC(=N)S [THIOACETAMIDE] )
OUT: Not Active

The measured values listed here are drawn from ChEMBL document CHEMBL1909046.
